Quick reference: growth inhibition of the listed items.
assay: Restrictive medium S. cerevisiae growth inhibition, OD615, pilot screen of yeast lifespan reduction project, restrictive growth control (AID 706); details: OD615, 48 h, at 10 µM, stronger effect = higher value;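 note: modified DeaD lifespan yeast strain shifted to restrictive glucose medium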
Write down the numeric answer in % and omit the unit.

COMPOUND: COc1ccc(NC(C)=O)cc1NC(=O)CSc1nnc(-c2cccnc2)n1C
READOUT: growth inhibition
DATA_VALUE: -0.47
--
COMPOUND: CN(CCCNC(=O)Cn1cc2c(n1)CCCC2)C1CCCCC1
READOUT: growth inhibition
DATA_VALUE: -0.155
--
COMPOUND: CCOC(=O)c1c(N)sc(C(=O)N2CCCCCC2)c1C
READOUT: growth inhibition
DATA_VALUE: -21.8

Entry CC(=O)C1C(c2ccc(OC(F)F)cc2)NC(=O)NC1(O)C(F)(F)F (stereo unspecified) : reported growth inhibition = ? -6.05

Entry O=C(Cn1cnc2c(nnn2-c2ccccc2)c1=O)NCc1ccco1 : reported growth inhibition = ? 3.14

Entry COC(=O)C1=C(C)NC(=O)CC1c1cc2c(cc1Br)OCO2 (stereo unspecified) : reported growth inhibition = ? 7.57

* * *

assay: inhibitors of the yeast RAM network, pilot screen, dse1pr::URA3 reporter, 5-FOA selection (AID 869);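 note: 0% = DMSO wells with no growth and 100% = 10 µM 1-NA-PP1 with full growth; RAM network block rescues cells from 5-FOA so hits raise OD615 growth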; settings: S. cerevisiae dse1pr::URA3 5-FOA growth, OD615, 2 d; at 10 µM; stronger effect = higher value; strain carries analog-sensitive mutant Cbk1 kinase
Quick reference: inhibition of the listed items.
Write down the numeric answer in % and omit the unit.

COMPOUND: CCOCCOC(=O)C1=C(C)N(C)C(=O)NC1c1ccccc1Cl (centres undefined)
UNITS_TEXT: %
inhibition: 0.375

COMPOUND: CCOC(=O)c1c(C)[nH]c(C(=O)OC)c1CCC(=O)OC
UNITS_TEXT: %
inhibition: 2.56

COMPOUND: Cc1c(C(=O)NCc2ccc3c(c2)OCO3)oc2ccc(S(=O)(=O)N3CCCCCC3)cc12
UNITS_TEXT: %
inhibition: 1.82

Entry CCOC(=O)N1CCC(N2C(=O)c3ccccc3C2=O)CC1 : reported inhibition = ? 1.98

Entry CCOC(=O)CCn1cc(F)c(=O)n(Cc2ccccc2)c1=O : reported inhibition = ? 0.42

Entry N#CCCN1CCN(S(=O)(=O)c2ccc(S(=O)(=O)N3CCCC3)cc2)CC1 : reported inhibition = ? 1.29

Entry N=c1sccn1CC(=O)Nc1ccccc1-c1ccccc1 : reported inhibition = ? 2.95

Entry Cc1ccc2c(c1)c1cccc3c1n2CCN3CCC(N)=O : reported inhibition = ? 3.32

* * *

experiment: inhibitors of the yeast RAM network, pilot screen, dse1pr::URA3 reporter, 5-FOA selection (AID 869);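 note: 0% = DMSO wells with no growth and 100% = 10 µM 1-NA-PP1 with full growth; RAM network block rescues cells from 5-FOA so hits raise OD615 growth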; settings: S. cerevisiae dse1pr::URA3 5-FOA growth, OD615, 2 d; at 10 µM; strain carries analog-sensitive mutant Cbk1 kinase
Activity calls are given as the source filed them.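 The calls were made as follows: active = inhibition over a set limit, the all-compound mean plus 3 SD, in both replicate runs; inconclusive = over that limit in just one replicate run; inactive = at or under that limit in both runs.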
Outcome (select one): yes (1) for active, no (0) for inactive

Examples with answers:
COMPOUND: Cn1c(C(=O)N2CCN(c3ccccc3F)CC2)cc2c(=O)n(C)c3ccccc3c21
ANSWER_LABEL: no (0)
//
COMPOUND: Cc1nnc(NC(=O)CSc2nnc(Cc3cccn3C)n2-c2ccccc2)s1
ANSWER_LABEL: no (0)
//
COMPOUND: N#Cc1nc(-c2ccccc2F)oc1NCc1ccccc1
ANSWER_LABEL: no (0)
//
COMPOUND: COC(=O)c1nc2n(n1)C(c1cccc(Cl)c1)C1=C(CCCC1=O)N2 (stereo not drawn)
ANSWER_LABEL: no (0)
//
COMPOUND: CCOC(=O)CNc1c(N2CCN(c3ccccn3)CC2)c(=O)c1=O
ANSWER_LABEL: no (0)

Could you please tell me the result logged for COc1ccc(OC)c(CCNC(=O)Cn2sc3nc(C)cc(C)c3c2=O)c1 in this assay? no (0)

Could you please tell me the result logged for CCOC(=O)C1=C(CS(=O)(=O)c2ccccc2)NC(=O)NC1c1ccccc1OCC (stereo not drawn) in this assay? no (0)

Could you please tell me the result logged for COc1ccc(OC)c(C2CC(=O)c3c([nH]c(C(=O)OC(C)C)c3C)C2)c1 (stereo not drawn) in this assay? no (0)

Could you please tell me the result logged for O=C(NCCC1=CCCCC1)c1ccc2c(=O)n3c(nc2c1)CCCCC3 in this assay? no (0)

Could you please tell me the result logged for Cc1ccc(C(=O)CSc2nnc(-c3cccs3)n2C)o1 in this assay? no (0)

Could you please tell me the result logged for Cc1ccc2c(c1)N(CCCC(=O)NCc1ccc3c(c1)OCO3)C(=O)CO2 in this assay? no (0)

Could you please tell me the result logged for Cc1ccnc(N2C(=O)c3ccccc3C2Nc2ccc3c(c2)OCCO3)c1 (stereo not drawn) in this assay? no (0)

Could you please tell me the result logged for COc1nc(NCCC2=CCCCC2)nc(OC)n1 in this assay? no (0)

Could you please tell me the result logged for CSc1nc2sc3c(c2c(=O)n1C)CCCC3 in this assay? no (0)

Could you please tell me the result logged for CCCC(=O)Nc1nc2ccc(OC)cc2s1 in this assay? no (0)

Could you please tell me the result logged for Cc1cc(NCc2ccco2)nc2cc(O)ccc12 in this assay? no (0)

Could you please tell me the result logged for O=C(C1CCC(=O)N1Cc1cccnc1)N1CCN(c2ccc(F)cc2)CC1 (stereo not drawn) in this assay? no (0)

Could you please tell me the result logged for CN(C)Cc1c(O)ccc2occ(C(O)c3ccccc3)c12 (stereo not drawn) in this assay? no (0)

Could you please tell me the result logged for COc1ccc(Cl)cc1C(=O)NCC(C)C in this assay? no (0)

Could you please tell me the result logged for COc1cccc(-n2c(Cc3cc(=O)[nH]c(=O)[nH]3)nnc2SCC(=O)N2CCCCCC2)c1 in this assay? no (0)

Could you please tell me the result logged for CC1CCN(C(=O)c2ccc(NC(=O)C3CCCO3)cc2)CC1 (stereo not drawn) in this assay? no (0)

Could you please tell me the result logged for O=C(Nc1ccc(Oc2ccc(NC(=O)C3CCCO3)cc2)cc1)C1CCCO1 (stereo not drawn) in this assay? no (0)

Could you please tell me the result logged for COCCn1c(=O)[nH]c2cc(C(=O)NC3CCCCCC3)ccc2c1=O in this assay? yes (1)

* * *

test: Restrictive medium S. cerevisiae growth inhibition, OD615, pilot screen of yeast lifespan reduction project, restrictive growth control (AID 706); conditions: OD615, 48 h, at 10 µM, stronger effect = higher value;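 note: modified DeaD lifespan yeast strain shifted to restrictive glucose medium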
READOUT: growth inhibition (%)
Write down the numeric answer in % and omit the unit.

COMPOUND: COCN(C#N)c1nc(OC)nc(OC)n1
growth inhibition [%]: 7.01
--
COMPOUND: COc1ccccc1-c1c(C)nn2c(C)cc(C)nc12
growth inhibition [%]: -1.54
--
COMPOUND: COc1ccccc1-c1nc(-c2ccccn2)no1
growth inhibition [%]: -2.21
--
COMPOUND: Cc1ccc(C(=O)COC(=O)c2cnccn2)cc1
growth inhibition [%]: -10.8
--
COMPOUND: CCc1nnc(NC(=O)c2ccc(S(=O)(=O)N3CCOCC3)cc2)s1
growth inhibition [%]: -20.2

Entry COc1ccc(N2C(=O)CCC(C(=O)Nc3ccccn3)C2c2ccc(OC)c(OC)c2)cc1 (configuration not stated) : reported growth inhibition = ? -9.93

Entry Cc1ccc(N2C(=O)c3ccccc3C2Nc2ccccc2F)nc1 (configuration not stated) : reported growth inhibition = ? -1.2

* * *

test: viability gain of MRP-1-high H69AR cells under doxorubicin, pilot screen, MRP-1 activator project, CellTiter-Glo, duplicate (AID 807); details: H69AR viability with doxorubicin, CellTiter-Glo luminescence; at 10 µM; stronger effect = higher value;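 note: compound pretreatment 18-22 h then 72 h combined with doxorubicin; 0% = doxorubicin alone and 100% = vehicle without doxorubicin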
READOUT: viability increase (%)
Write down the numeric answer in % and omit the unit.

Entry O=c1c(N2CCOCC2)nsnc1N1CCOCC1 : reported viability increase = ? -1.68

Entry O=C(CCS(=O)(=O)c1cccc2nonc12)NCCc1ccccc1 : reported viability increase = ? -3.1

Entry COc1ccc(OC)c2[nH]c(=O)c(CCNC(C)=O)cc12 : reported viability increase = ? -0.39

Entry O=C(Cn1nc(Cc2cccnc2)c2ccccc2c1=O)N1CCN(c2ccccn2)CC1 : reported viability increase = ? 0.48

Entry CCOC(=O)c1ccc(NC(=O)CSc2nc3c(c(=O)n2C)SC(C)C3)cc1 (stereo unspecified) : reported viability increase = ? -2.01

Entry Cc1cc(Nc2ccc(F)cc2C)n2nc(C)nc2n1 : reported viability increase = ? -1.42

* * *

Quick reference: inhibition of the listed items.
experiment: inhibitors of the yeast RAM network, pilot screen, dse1pr::URA3 reporter, 5-FOA selection (AID 869);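 note: 0% = DMSO wells with no growth and 100% = 10 µM 1-NA-PP1 with full growth; RAM network block rescues cells from 5-FOA so hits raise OD615 growth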; conditions: S. cerevisiae dse1pr::URA3 5-FOA growth, OD615, 2 d; at 10 µM; stronger effect = higher value; strain carries analog-sensitive mutant Cbk1 kinase
Write down the numeric answer in % and omit the unit.

The following compounds have reported results that may help.
COMPOUND: CCN1CCN(C(c2cccs2)C(C)NC(=O)C(C)C)CC1 (stereo not given)
UNITS_TEXT: %
inhibition: -0.3

COMPOUND: O=C(CCCCCn1c(=O)[nH]c2ccsc2c1=O)N1CCN(C2CCCCC2)CC1
UNITS_TEXT: %
inhibition: 1.38

COMPOUND: O=C(Cn1ncc2c(=O)oc3ccccc3c21)N1CCc2ccccc2C1
UNITS_TEXT: %
inhibition: 0.645

COMPOUND: COc1cc(OC)cc(C(=O)NCCn2ccc3ccccc32)c1
UNITS_TEXT: %
inhibition: 1.16

COMPOUND: C=C(C)Cn1c(C2CC(=O)N(Cc3ccccc3)C2)nc2ccccc21 (stereo not given)
UNITS_TEXT: %
inhibition: 1.46

Entry COc1ccc(C2C(C(=O)N3CCCCC3)c3ccccc3C(=O)N2C)cc1 (stereo not given) : reported inhibition = ? 0.375

Entry CCc1c(C(C)O)oc2ccc3c(C)cc(=O)oc3c12 (stereo not given) : reported inhibition = ? 1.06

Entry COC(=O)Cn1c(=NC(=O)C2CC2)sc2c(C)cc(C)cc21 : reported inhibition = ? 0.27

Entry COC(=O)c1cc(OC)c(OC)cc1NC(=O)c1c(-c2ccccc2Cl)noc1C : reported inhibition = ? 1.68

Entry CCn1c(=NC(=O)CSC(C)=O)sc2cc(OC)ccc21 : reported inhibition = ? 1.25

Entry O=C(CN1CCOCC1)Nc1cc(Cl)ccc1Cl : reported inhibition = ? 2.6

Entry O=C(O)CCC(C(=O)O)n1c(O)c(C2=c3ccccc3=NC2=O)sc1=S (stereo not given) : reported inhibition = ? 2.23

Sourced from PubChem BioAssay
